- SYSTEM: Platelet-activating factor receptor (Homo sapiens, UniProt P25105); further: in other assays of this panel Not Active means under 50% inhibition at 10 µM
- Sequence (P25105 whole entry): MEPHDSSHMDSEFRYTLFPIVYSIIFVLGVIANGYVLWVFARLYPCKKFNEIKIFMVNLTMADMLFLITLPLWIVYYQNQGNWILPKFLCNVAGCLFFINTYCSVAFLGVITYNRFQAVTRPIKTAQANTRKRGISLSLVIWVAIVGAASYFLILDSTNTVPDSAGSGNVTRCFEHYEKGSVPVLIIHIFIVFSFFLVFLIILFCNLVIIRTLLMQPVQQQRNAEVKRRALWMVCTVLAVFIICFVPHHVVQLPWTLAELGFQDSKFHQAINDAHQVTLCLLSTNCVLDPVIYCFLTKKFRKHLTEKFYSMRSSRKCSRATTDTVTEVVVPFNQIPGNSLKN
- ASSAY: biochemical
- Type: tissue-based
- CONDITIONS: platelet

{"columns": ["MOLECULE", "IC50"],
 "data": [
  ["COC1=CC(=O)C[C@@H](C)[C@]12Oc1c(Cl)c(OC)cc(OC)c1C2=O", "Not Active"],
  ["CO[C@@H]1[C@@H](O[C@@H]2O[C@H](C)[C@@H](O[C@H]3C[C@@](C)(O)[C@@H](OC(=O)CC(C)C)[C@H](C)O3)[C@H](N(C)C)[C@H]2O)[C@@H](CC=O)C[C@@H](C)[C@@H](O)/C=C/C=C/C[C@@H](C)OC(=O)C[C@H]1O", "Not Active"],
  ["CC(C)(C)NCC(O)c1ccc(O)c(CO)c1 (stereo not drawn)", "Not Active"]
]}

Source listed as ChEMBL document CHEMBL1909046.
